Listing of recorded growth by entry.
# Tested on: PC-3 prostate
# protocolDescription: NCI-60 one-dose screen, 48 h (100 = growth as untreated, 0 = no growth, -100 = all killed)
# testParameters: 10 µM unless noted
This is part of a sample that, as a whole, favours compounds with a hit. Of some 83,000 tested, about 20% had one in any assay. Active and inactive are the calls of the source. The calls were made as follows: active = growth percent below 10; inactive = the rest.

Worked set:
>>> obsvalue("CCOC(=O)c1cncn1C(C)c1ccccc1 (stereo unspecified)")
"97.9% (inactive)"
>>> obsvalue("CC1=CC(=O)CCC12CCOC2=O (stereo unspecified)")
"111% (inactive)"
>>> obsvalue("CC(=O)c1cccc(S(=O)(=O)F)c1")
"79% (inactive)"
>>> obsvalue("O=[N+]([O-])c1c(Cl)cc(Cl)c([N+](=O)[O-])c1Cl")
"83.2% (inactive)"
>>> obsvalue("C[C@]12CCC(=O)C[C@@H]1CC[C@@H]1[C@@H]2CC[C@]2(C)[C@@H](OC(=O)N(CCCl)N=O)CC[C@@H]12")
"36.3% (inactive)"

Shift focus to the following entry.
Lookup: Using the record for "CCN1C(=O)CC(=O)N(CC)C1=S" , report its growth.
Found: 100% (inactive)

###

# Tested on: SR leukemia
# protocolDescription: NCI-60 one-dose screen, 48 h
# testParameters: 10 µM unless noted
Compounds without any hit were thinned out: in the full panel of roughly 83,000, 20% have a hit. Activity calls are given as the source filed them. The calls were made as follows: active = growth percent below 10; inactive = the rest.
Permitted responses: yes (1) = active, no (0) = inactive

>>> group("O=Cc1cn(Cc2ccccc2)c2ccccc12")
"no (0)"

Lookup: What was the test verdict on "CCN(CC)CCn1c(=O)n(C)c2ccccc21" ?
Found: no (0)

Lookup: What was the test verdict on "C/C(=C\c1ccn(-c2ccc(N)cc2F)n1)[C@@H]1C[C@@H]2O[C@]2(C)CCC[C@H](C)[C@H](O)[C@@H](C)C(=O)C(C)(C)[C@@H](O)CC(=O)O1" ?
Found: no (0)

###

# Tested on: ACHN renal
# protocolDescription: NCI-60 one-dose screen, 48 h (100 = growth as untreated, 0 = no growth, -100 = all killed)
# testParameters: 10 µM unless noted
The panel holds about 83,000 compounds, 20% with a hit somewhere; the sample as a whole holds those more often.
Listing of recorded growth by entry.
Unit % implied. Number only.

Worked set:
>>> obsvalue("CC[C@H](C)[C@H](NC(=O)CN(C)C)C(=O)N(C)[C@H](C[C@@H](OC(C)=O)c1nc(C(=O)NC23CC(C(=O)OC)(C2)C3)cs1)C(C)C")
46.9
>>> obsvalue("C=CC[PH+](c1ccccc1)c1ccccc1.C=CC[PH+](c1ccccc1)c1ccccc1.[Pt+2].[S-]c1ncccn1.[S-]c1ncccn1")
-43.3
>>> obsvalue("C#Cc1cccc(Nc2nc(Cl)nc3cc(NC(=O)CF)ccc23)c1")
92.5
>>> obsvalue("O=CC1(c2ccccc2)CCN(Cc2ccccc2)CC1")
112

Lookup: Using the record for O=C(O)C(Br)CBr (stereo not given) , report its growth.
Found: 97.4

Lookup: Using the record for "CO/N=C1\CC[C@]2(C)[C@H]3CC[C@]4(C)C(=O)CC[C@H]4[C@@H]3C[C@@H]3SC(N)=N[C@@]32C1" , report its growth.
Found: 100

Lookup: Using the record for "Nc1ccc(S(=O)(=O)F)cc1" , report its growth.
Found: 109

Lookup: Using the record for "C=C[Se]CC(=O)/C=C/c1ccccc1" , report its growth.
Found: 95.5

Lookup: Using the record for "Nc1ccc2c(c1)Cc1cc(N)ccc1-2" , report its growth.
Found: 97

Lookup: Using the record for "N#CCN(CC#N)[N+](=O)[O-]" , report its growth.
Found: 110

Lookup: Using the record for COc1ccc(C(C#N)C(C)=O)cc1 (stereo not given) , report its growth.
Found: 99.8

Lookup: Using the record for CN1C2CCC1[C@@H](COC(=O)c1ccccc1)[C@@H](O)C2 (stereo not given in full) , report its growth.
Found: 105

Lookup: Using the record for "CC1=CC(=Nc2ccc(N(CCCl)CCCl)cc2)C=C(C)C1=O" , report its growth.
Found: -1.94

Lookup: Using the record for "CSc1cc(/C=C(\C)[C@@H]2C[C@@H]3O[C@]3(C)CCC[C@H](C)[C@H](O)[C@@H](C)C(=O)C(C)(C)[C@@H](O)CC(=O)O2)n(CCNC(=O)OC(C)(C)C)n1" , report its growth.
Found: 77.8

###

# System: SK-OV-3 ovarian
# protocolDescription: NCI-60 one-dose screen, 48 h
# testParameters: 10 µM unless noted
This is part of a sample that, as a whole, favours compounds with a hit. Of some 83,000 tested, about 20% had one in any assay. The source made the active and inactive calls. How the source made its calls: active means growth percent below 10; inactive means the rest.
Permitted responses: True for active, False for inactive

Reference set (5 entries):
>>> group("CC(C)CCC1C(=O)NC(=O)NC1=O")
"False"
>>> group("O=C(O)c1cc([N+](=O)[O-])cc([N+](=O)[O-])c1")
"False"
>>> group("O=Cc1cn(Cc2ccccc2)c2ccccc12")
"False"
>>> group("C=CC[PH+](c1ccccc1)c1ccccc1.C=CC[PH+](c1ccccc1)c1ccccc1.[Pt+2].[S-]c1ncccn1.[S-]c1ncccn1")
"False"
>>> group("CCCCCCCCCCCCCCCCCC1OCC(COC(=O)O[C@@H](C(=O)O[C@H]2C[C@@]3(O)[C@@H](OC(=O)c4ccccc4)[C@@H]4[C@]5(OC(C)=O)CO[C@@H]5C[C@H](O)[C@@]4(C)C(=O)[C@H](OC(C)=O)C(=C2C)C3(C)C)[C@@H](NC(=O)c2ccccc2)c2ccccc2)O1 (some centres undefined)")
"False"

Lookup: What was the test verdict on "COC[C@H]1OC(=O)c2coc3c2[C@@]1(C)C1=C(C3=O)[C@@H]2CCC(=O)[C@@]2(C)C[C@H]1OC(C)=O" ?
Found: False

Lookup: What was the test verdict on CN1C2CCC1[C@@H](COC(=O)c1ccccc1)[C@@H](O)C2 (some centres undefined) ?
Found: False

Lookup: What was the test verdict on CCC(=O)C(CC(C)N1CCCCCC1)(c1ccccc1)c1ccccc1 (centres undefined) ?
Found: False

Lookup: What was the test verdict on COc1ccc(C(C#N)C(C)=O)cc1 (centres undefined) ?
Found: False

Lookup: What was the test verdict on "COc1ccc(N(CC(=O)NCCC[Te]c2ccccc2)C(=O)c2ccccc2)cc1" ?
Found: True

Lookup: What was the test verdict on "C[C@]12CCc3sc(Nc4ccc(F)cc4F)nc3C1=CC[C@@H]1[C@@H]2CC[C@]2(C)C(=O)CC[C@@H]12" ?
Found: False

Lookup: What was the test verdict on "CCOC(=O)P(=O)(OCC)OCC" ?
Found: False

###

# Tested on: UO-31 renal
# protocolDescription: NCI-60 one-dose screen, 48 h (100 = growth as untreated, 0 = no growth, -100 = all killed)
# testParameters: 10 µM unless noted
# Experimental: Growth inhibition of the UO-31 human tumor cell line is measured as a screen for anti-cancer activity. Cells are grown in 96 well plates and exposed to the test compound for 48 hours. Compounds are tested at a single concentration, which is 10^-5 M for most compounds. The reported endpoint is percent growth (GI% or GIPRCNT), where numbers from 0 - 100% represent growth inhibition, and numbers from -100% - 0 represent cell death. For example, a value of 40 represents 60% growth inhibition. […]
Compounds without any hit were thinned out: in the full panel of roughly 83,000, 20% have a hit.
# label = Y if growth >= 90% else N

>>> group("O=CC1(c2ccccc2)CCN(Cc2ccccc2)CC1")
"N"

Lookup: Could you verify whether the entry "Cc1cc(NC(=O)NCCCOc2ccc(N3C(N)=NC(N)=NC3(C)C)cc2Cl)ccc1S(=O)(=O)F" shows growth of no less than 90%?
Found: Y

Lookup: Could you verify whether the entry "O=C1NC(=O)C(=C/C=C/c2ccccc2)C(=O)N1" shows growth of no less than 90%?
Found: N

Lookup: Could you verify whether the entry O=S(OO)c1cc(Cl)c(O)c(Cl)c1 (stereo not given) shows growth of no less than 90%?
Found: N

Lookup: Could you verify whether the entry "C[C@]12CC[C@H]3[C@@H](CC=C4c5nc(-c6ccc(Br)cc6)sc5CC[C@@]43C)[C@@H]1CC[C@@H]2O" shows growth of no less than 90%?
Found: Y

###

Listing of recorded growth by entry.
# Test system: MOLT-4 leukemia
# protocolDescription: NCI-60 one-dose screen, 48 h (100 = growth as untreated, 0 = no growth, -100 = all killed)
# testParameters: 10 µM unless noted
The panel holds about 83,000 compounds, 20% with a hit somewhere; the sample as a whole holds those more often.
Unit % implied. Number only.

Worked set:
>>> obsvalue("C=CCOC(=O)C(Br)CC (stereo not given)")
102
>>> obsvalue("CN(C)C(=S)SSC(=S)N(C)C")
92.3
>>> obsvalue("Cc1cc(N)ccc1N")
107

Lookup: Using the record for "COc1cc2c(cc1OC)[C@@H]1C(=O)c3ccc4c(c3O[C@@H]1CO2)C[C@H](C(C)C)O4" , report its growth.
Found: 37

Lookup: Using the record for "CC[C@H](C)[C@H](NC(=O)[C@H]1CCCCN1C)C(=O)N(C)[C@H](C(=O)NC12CC(C(=O)N[C@@H](Cc3ccccc3)C[C@H](C)C(=O)OC)(C1)C2)C(C)C" , report its growth.
Found: 104
